molecular target: BMAL1 (Homo sapiens); set-up: PASB domain (residues 338–449); Protein thermal shift (PTS) fragment screen on recombinant human BMAL1(PASB), shift of melting temperature; conditions: dTmB; binder
Bmal1(PASB) dTmB below -0.4 °C gives f; Bmal1(PASB) dTmB at or above it gives t.

Is Bmal1(PASB) dTmB at least -0.4 °C? Consider CN(C)CCNCc1ccccc1 t

###

molecular target: BMAL1 (Homo sapiens, UniProt O00327); set-up: PASB domain (residues 338–449); Protein thermal shift (PTS) fragment screen on recombinant human BMAL1(PASB), shift of melting temperature; details: dTmB; binder
Sequence (O00327 338-449): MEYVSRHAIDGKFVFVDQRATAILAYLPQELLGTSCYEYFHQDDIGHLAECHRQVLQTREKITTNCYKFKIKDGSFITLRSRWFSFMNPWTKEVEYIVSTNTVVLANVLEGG
VALUE TYPE: Bmal1(PASB) dTmB (°C)
Give your result in °C as a bare value.

Below are worked cases with known answers.
1) O=C1OCc2ccccc21 : -0.23
2) CCc1cccc2c(CCO)c[nH]c12 : -0.11
3) Cc1c(O)c2ccccc2oc1=O : 0.05
4) NCCc1c[nH]c2ccc(O)cc12 : -0.60
5) Nc1nc2ccccc2n1Cc1ccc(F)cc1 : -1.64
6) Nc1nc2ccccc2o1 : -0.33
7) C[N+](C)(CCO)Cc1ccccc1 : -0.27
8) CC(C)(CN)c1ccccc1 : -0.30

Any idea what Bmal1(PASB) dTmB was measured for CCCOc1ccc(C(=O)OCC)cc1N ? -1.52

Any idea what Bmal1(PASB) dTmB was measured for Cn1cc(CC(=O)O)c2ccccc21 ? -0.44

Any idea what Bmal1(PASB) dTmB was measured for c1ccc2c(c1)OCO2 ? -0.52

Any idea what Bmal1(PASB) dTmB was measured for O=C(O)c1cccnc1 ? -0.10

Any idea what Bmal1(PASB) dTmB was measured for Oc1cccc2[nH]ccc12 ? -0.70

Any idea what Bmal1(PASB) dTmB was measured for c1ccc(-c2nn[nH]n2)cc1 ? 0.51

Any idea what Bmal1(PASB) dTmB was measured for NCCOCc1ccccc1 ? 0.05

Any idea what Bmal1(PASB) dTmB was measured for CCN(CC)Cc1cc(N)ccc1O ? -4.46

Any idea what Bmal1(PASB) dTmB was measured for Oc1cccc(CN2CCCCC2)c1 ? -0.43

Any idea what Bmal1(PASB) dTmB was measured for NCC(CC(=O)O)c1ccccc1 (stereo not drawn) ? -0.06

Any idea what Bmal1(PASB) dTmB was measured for c1cc(N2CCNCC2)ncn1 ? -0.01

Any idea what Bmal1(PASB) dTmB was measured for O=C(O)CC[C@H](NC(=O)c1ccccc1)C(=O)O ? 0.09

Any idea what Bmal1(PASB) dTmB was measured for COc1ccccc1OCCCO ? 4.16

###

Below: a set of entries, each annotated with reported Bmal1(PASB) dTmB.
molecular target: BMAL1 (Homo sapiens, UniProt O00327); set-up: PASB domain (residues 338–449); Protein thermal shift (PTS) fragment screen on recombinant human BMAL1(PASB), shift of melting temperature; conditions: dTmB; binder

Below are worked cases with known answers.
1) Nc1nc(N)nc(-c2ccccc2)n1 : -0.27 °C
2) NC1CCc2ccccc21 (stereo not drawn) : -0.81 °C

Notebook: pull reported Bmal1(PASB) dTmB for BMAL1 (Homo sapiens, UniProt O00327), entry CC1CCC(=O)O1 (stereo not drawn) -0.06 °C

Notebook: pull reported Bmal1(PASB) dTmB for BMAL1 (Homo sapiens, UniProt O00327), entry CC(C)(Oc1ccccc1)C(=O)O 0.07 °C

Notebook: pull reported Bmal1(PASB) dTmB for BMAL1 (Homo sapiens, UniProt O00327), entry c1ccc(CNc2ccccn2)cc1 -1.06 °C

Notebook: pull reported Bmal1(PASB) dTmB for BMAL1 (Homo sapiens, UniProt O00327), entry O=C(CCc1ccccc1)c1ccccc1O -0.33 °C

Notebook: pull reported Bmal1(PASB) dTmB for BMAL1 (Homo sapiens, UniProt O00327), entry O=C(O)c1cc(=O)c2ccccc2o1 -0.25 °C

Notebook: pull reported Bmal1(PASB) dTmB for BMAL1 (Homo sapiens, UniProt O00327), entry CNCC(c1ccc(OC)cc1)C1(O)CCCCC1 (stereo not drawn) -0.81 °C

Notebook: pull reported Bmal1(PASB) dTmB for BMAL1 (Homo sapiens, UniProt O00327), entry CN1CCN(C(c2ccccc2)c2ccccc2)CC1 -0.51 °C

###

Below: a set of entries, each annotated with reported Bmal1(PASB) dTmB.
target: BMAL1 (Homo sapiens, UniProt O00327); parameters: PASB domain (residues 338–449); Protein thermal shift (PTS) fragment screen on recombinant human BMAL1(PASB), shift of melting temperature; settings: dTmB; binder

Below are worked cases with known answers.
1. O=C(O)CNC(=O)c1ccccc1 : 0.18 °C
2. COc1ccc2nc(SC)[nH]c2c1 : 1.19 °C
3. COc1ccc(OCC(N)=O)cc1 : 0.07 °C
4. COc1cc(C)cc(C)c1C : -0.12 °C
5. O=C1CCCc2[nH]ccc21 : 0.11 °C
6. Cc1c(N)c(=O)n(-c2ccccc2)n1C : -0.46 °C
7. Cc1nc(-c2ccccc2)cs1 : -0.52 °C
8. c1ccc(CN2CCNCC2)cc1 : -0.38 °C
9. O=C1Nc2ccccc2Nc2ccccc21 : 0.05 °C
10. Clc1ccc(-c2cncnc2)cc1 : -1.51 °C

Any idea what Bmal1(PASB) dTmB was measured for c1ccc(C(CCN2CCCCC2)c2ccccc2)cc1 ? -2.05 °C

Any idea what Bmal1(PASB) dTmB was measured for NCC(O)COc1cccc2ccccc12 (stereo not shown) ? 1.58 °C

Any idea what Bmal1(PASB) dTmB was measured for CNC(=O)c1ccc(Cl)cc1 ? -0.45 °C
